tested on: Bacillus subtilis; assay: Antibacterial activity against Bacillus subtilis at 100 ug/ml after 24 hrs by agar well diffusion method; format: functional; conditions: read-out: DIZ
Classify by measured zone of inhibition at 100 µg/mL: rule met if it is equal to or exceeds 20 mm, rule not met if it is smaller.

Answered cases to consult:
| compound | system | class name |
| --- | --- | --- |
| COc1ccc(/C=N/Nc2nc3cccc(C)c3s2)c(OC)c1 | Bacillus subtilis | rule met |
| Cc1cccc2nc(N/N=C/c3ccc(Cl)cc3Cl)sc12 | Bacillus subtilis | rule not met |

**Query** Is reported zone of inhibition at 100 µg/mL greater than or equal to 20 mm here: COc1cc(/C=N/Nc2nc3cccc(C)c3s2)cc(Br)c1O
**Result** rule not met

**Query** Hi, just wondering whether Cc1cccc2nc(N/N=C/c3ccc(Cl)cc3)sc12 shows zone of inhibition at 100 µg/mL of 20 mm or higher.
**Result** rule not met

**Query** Decide: is the reported value of zone of inhibition at 100 µg/mL for COc1ccc(/C=N/Nc2nc3cccc(C)c3s2)cc1 equal to or greater than 20 mm?
**Result** rule met

**Query** Is zone of inhibition at 100 µg/mL at least 20 mm? Consider Cc1cccc2nc(N/N=C/c3ccc([N+](=O)[O-])cc3[N+](=O)[O-])sc12
**Result** rule not met

====

tested on: Fusarium oxysporum; assay: Antifungal activity against Fusarium oxysporum at 50 ug/ml after 48 hrs by agar well diffusion method; type: functional; details: read-out: DIZ
assay readout: zone of inhibition at 50 µg/mL (mm)
Quick note: give the figure in mm, leave out the unit.

| compound | unit spec | zone of inhibition at 50 µg/mL |
| --- | --- | --- |
| Cc1cccc2nc(N/N=C/c3cc4ccccc4[nH]3)sc12 | mm | 24 |

For this compound ( Cc1cccc2nc(N/N=C/c3ccc(Br)cc3Br)sc12 ), measured zone of inhibition at 50 µg/mL is 24

response.value for Cc1cccc2nc(N/N=C/c3ccco3)sc12 (field: zone of inhibition at 50 µg/mL) = 10

Lab note: measured zone of inhibition at 50 µg/mL of Cc1cccc2nc(N/N=C/c3ccc(Br)cc3)sc12 was 18

Note to self: zone of inhibition at 50 µg/mL recorded for Cc1cccc2nc(N/N=C/c3ccc(Cl)cc3Cl)sc12 was 22

Lookup result for Cc1cccc2nc(N/N=C/c3cc(O)c(O)c(O)c3)sc12 ; measured zone of inhibition at 50 µg/mL: 22

Value of zone of inhibition at 50 µg/mL reported for the compound Cc1cccc2nc(N/N=C/c3ccc(Cl)cc3)sc12 is 11

====

system: Fusarium oxysporum; test: Antifungal activity against Fusarium oxysporum at 25 ug/ml after 48 hrs by agar well diffusion method; assay type: functional
The source made the active and inactive calls. No cut-off for these calls is given here.
assay readout: diameter of the inhibition zone (DIZ)

Below, 5 compounds whose answers are already recorded.
| molecule smiles | diameter of the inhibition zone (DIZ) |
| --- | --- |
| COc1ccc(/C=N/Nc2nc3cccc(C)c3s2)cc1Br | inactive |
| COc1ccc(/C=N/Nc2nc3cccc(C)c3s2)cc1 | inactive |
| CCCCCC/C=N/Nc1nc2cccc(C)c2s1 | inactive |
| COc1cc(/C=N/Nc2nc3cccc(C)c3s2)ccc1OCc1ccccc1 | inactive |
| Cc1cccc2nc(N/N=C/c3ccc(O)cc3O)sc12 | inactive |

The recorded diameter of the inhibition zone (DIZ) for COc1cc(/C=N/Nc2nc3cccc(C)c3s2)ccc1O is inactive

# diameter of the inhibition zone (DIZ) (compound: Cc1cccc2nc(N/N=C/c3ccc(O)cc3)sc12 ) is inactive

According to the records, this compound Cc1cccc2nc(N/N=C/c3ccncc3)sc12 displays diameter of the inhibition zone (DIZ) of inactive

Per the record, Cc1cccc2nc(N/N=C/c3ccc[nH]3)sc12 has diameter of the inhibition zone (DIZ) of inactive

Value of measured diameter of the inhibition zone (DIZ) for the entry Cc1cccc2nc(N/N=C/CC(C)C)sc12 : inactive

Memo: Cc1cccc2nc(N/N=C/c3ccc(O)cc3Br)sc12 , reported diameter of the inhibition zone (DIZ): inactive

response.value for CC/C=N/Nc1nc2cccc(C)c2s1 (field: diameter of the inhibition zone (DIZ)) = inactive

The compound listed as Cc1cccc2nc(N/N=C/c3ccc(Oc4ccccc4)cc3)sc12 has a reported diameter of the inhibition zone (DIZ) of inactive

====

tested on: Escherichia coli; assay: Antibacterial activity against Escherichia coli at 100 ug/ml after 24 hrs by agar well diffusion method; assay type: functional; conditions: read-out: DIZ
Listing of recorded zone of inhibition at 100 µg/mL by entry.
Quick note: give the figure in mm, leave out the unit.

Entry Cc1cccc2nc(N/N=C/c3ccc(Cl)cc3)sc12 , zone of inhibition at 100 µg/mL reported as 10

Lab book: zone of inhibition at 100 µg/mL of Cc1cccc2nc(N/N=C/c3ccccc3)sc12 noted as 15

====

test system: Staphylococcus aureus; experiment: Antibacterial activity against methicillin resistant Staphylococcus aureus MRSA090 at 25 ug/ml after 24 hrs by agar well diffusion method; type: functional
Activity calls are given as the source filed them. No cut-off for these calls is given here.
assay readout: diameter of the inhibition zone (DIZ)

| molecule smiles | diameter of the inhibition zone (DIZ) |
| --- | --- |
| CC/C=N/Nc1nc2cccc(C)c2s1 | inactive |
| CCCCCC/C=N/Nc1nc2cccc(C)c2s1 | inactive |
| Cc1cccc2nc(N/N=C/CC(C)C)sc12 | inactive |
| Cc1cccc2nc(N/N=C/c3ccccc3)sc12 | inactive |

Now, please, on to the next compound.
Reported diameter of the inhibition zone (DIZ) for Cc1cccc2nc(N/N=C/c3ccc(Oc4ccccc4)cc3)sc12 was inactive

====

system: Fusarium verticillioides; test: Antifungal activity against Fusarium moniliforme at 75 ug/ml after 48 hrs by agar well diffusion method; type: functional; settings: read-out: DIZ
Overview of reported zone of inhibition at 75 µg/mL across a group of molecules:

Known zone of inhibition at 75 µg/mL results, listed for orientation:
| molecule | val |
| --- | --- |
| Cc1cccc2nc(N/N=C/c3ccc(Cl)cc3Cl)sc12 | 28 mm |
| Cc1cccc2nc(N/N=C/c3ccc(F)cc3)sc12 | 21 mm |
| Cc1cccc2nc(N/N=C/c3ccc(O)cc3O)sc12 | 10 mm |

GET /values?item= Cc1cccc2nc(N/N=C/c3cc(O)c(O)c(O)c3)sc12 &system= Fusarium verticillioides returns zone of inhibition at 75 µg/mL: 26 mm

Log: Fusarium verticillioides, molecule Cc1cccc2nc(N/N=C/c3ccc(Br)cc3)sc12 , zone of inhibition at 75 µg/mL = 24 mm

Query COc1cc(/C=N/Nc2nc3cccc(C)c3s2)cc(Br)c1O on Fusarium verticillioides; zone of inhibition at 75 µg/mL returned: 17 mm

Value (zone of inhibition at 75 µg/mL, Fusarium verticillioides) for record Cc1cccc2nc(N/N=C/c3ccc(Br)cc3Br)sc12 = 32 mm

====

test system: Fusarium oxysporum; experiment: Antifungal activity against Fusarium oxysporum at 25 ug/ml after 48 hrs by agar well diffusion method; format: functional; conditions: read-out: DIZ
assay readout: zone of inhibition at 25 µg/mL (mm)
Supply the numeric figure in mm, leaving out any unit text.

Worked examples, 6 molecules total:
| molecule | unit spec | zone of inhibition at 25 µg/mL |
| --- | --- | --- |
| Cc1cccc2nc(N/N=C/c3ccc([N+](=O)[O-])cc3)sc12 | mm | 6 |
| COc1cc(/C=N/Nc2nc3cccc(C)c3s2)cc(Br)c1O | mm | 8 |
| Cc1cccc2nc(N/N=C/c3ccc(F)cc3F)sc12 | mm | 10 |
| Cc1cccc2nc(N/N=C/c3ccc(Cl)cc3Cl)sc12 | mm | 18 |
| Cc1cccc2nc(N/N=C/c3ccc([N+](=O)[O-])cc3[N+](=O)[O-])sc12 | mm | 13 |
| Cc1cccc2nc(N/N=C/c3ccco3)sc12 | mm | 4 |

Now for the molecule whose zone of inhibition at 25 µg/mL we want.
Lab book: zone of inhibition at 25 µg/mL of Cc1cccc2nc(N/N=C/c3cccs3)sc12 noted as 21

====

// reported zone of inhibition at 25 µg/mL for each item listed
system: Bacillus subtilis; assay: Antibacterial activity against Bacillus subtilis at 25 ug/ml after 24 hrs by agar well diffusion method; assay type: functional; details: read-out: DIZ
# output: bare number, implied unit mm

Field: example entries. Status: answers known.
| molecule smiles | unit spec | val |
| --- | --- | --- |
| COc1ccc(/C=N/Nc2nc3cccc(C)c3s2)c(OC)c1 | mm | 13 |
| Cc1cccc2nc(N/N=C/c3cc4ccccc4[nH]3)sc12 | mm | 10 |
| Cc1cccc2nc(N/N=C/c3ccc(F)cc3F)sc12 | mm | 7 |
| Cc1cccc2nc(N/N=C/c3ccc(Br)cc3Br)sc12 | mm | 13 |
| Cc1cccc2nc(N/N=C/c3ccc(Br)cc3)sc12 | mm | 4 |

# context switch: different molecule, same zone of inhibition at 25 µg/mL
zone of inhibition at 25 µg/mL for COc1cc(/C=N/Nc2nc3cccc(C)c3s2)cc(OC)c1OC is 19
